Values were extracted from ChEMBL document CHEMBL1142047.

- EXPERIMENT NOTES: Intrinsic clearance of compound in dog liver microsomes
PROPERTY LABEL: microsomal CLint (µL/min/mg)
API: value field is a number in µL/min/mg; no unit string.

// lookup microsomal CLint for CCCCN1CCC(CNC(=O)c2c3n(c4ccccc24)CCCO3)CC1 [PIBOSEROD] 4

###

- EXPERIMENT NOTES: Time taken for half of the concentration to degrade upon intravenous administration (n=8; dose 0.25 mg/kg iv)
- Assay type: ADME, organism-based, Canis lupus familiaris
- Design: dose 0.25 mg/kg, route intravenous
- CONDITION LABEL: dog, in vivo
PROPERTY LABEL: half-life

O=C(NCC1CCN(CCCS(=O)(=O)N2CCNCC2)CC1)c1cccc2c1OCCO2 ... 2220 min
O=C(NCC1CCN(CCCS(=O)(=O)N2CCN(C(=O)c3ccco3)CC2)CC1)c1cccc2c1OCCO2 ... 60 min

Kindly consider the entry below.
// lookup half-life for O=C(NCC1CCN(CCCS(=O)(=O)N2CCN(C3CCCC3)CC2)CC1)c1cccc2c1OCCO2 174 min

###

Below: a set of entries, each annotated with reported bioavailability.
- EXPERIMENT NOTES: Bioavailability in dog (dose 0.25 mg/kg i.v. and 0.5 mg/kg p.o.)
- Format: ADME, organism-based, Canis lupus familiaris
- CONDITION LABEL: in vivo, po
API: value field is a number in %; no unit string.

// lookup bioavailability for O=C(NCC1CCN(CCCS(=O)(=O)N2CCN(C(=O)c3ccco3)CC2)CC1)c1cccc2c1OCCO2 64

Item: O=C(NCC1CCN(CCCS(=O)(=O)N2CCN(C3CCCC3)CC2)CC1)c1cccc2c1OCCO2 42

Item: O=C(NCC1CCN(CCCS(=O)(=O)N2CCNCC2)CC1)c1cccc2c1OCCO2 33

###

Below: a set of entries, each annotated with reported bioavailability.
- EXPERIMENT NOTES: Bioavailability in dog (dose 0.25 mg/kg i.v. and 0.5 mg/kg p.o.)
- CONDITION LABEL: in vivo, po
API: value field is a number in %; no unit string.

The cases that follow already have their bioavailability on record.
CS(=O)(=O)N1CCN(S(=O)(=O)CCCN2CCC(CNC(=O)c3cccc4c3OCCO4)CC2)CC1 ... 90
CCCC1CCN(S(=O)(=O)CCCN2CCC(CNC(=O)c3cccc4c3OCCO4)CC2)CC1 ... 15
CC(=O)N1CCN(S(=O)(=O)CCCN2CCC(CNC(=O)c3cccc4c3OCCO4)CC2)CC1 ... 51

// lookup bioavailability for CC(C)N1CCN(S(=O)(=O)CCCN2CCC(CNC(=O)c3cccc4c3OCCO4)CC2)CC1 72

###

- EXPERIMENT NOTES: Intrinsic clearance of compound in human liver microsomes
PROPERTY LABEL: microsomal CLint (µL/min/mg)
API: value field is a number in µL/min/mg; no unit string.

// lookup microsomal CLint for CCCCN1CCC(CNC(=O)c2c3n(c4ccccc24)CCCO3)CC1 [PIBOSEROD] 5

###

Below: a set of entries, each annotated with reported bioavailability.
- EXPERIMENT NOTES: Bioavailability in dog (dose 0.25 mg/kg i.v. and 0.5 mg/kg p.o.)
- CONDITION LABEL: in vivo, po

O=C(NCC1CCN(CCCS(=O)(=O)N2CCN(c3ncccn3)CC2)CC1)c1cccc2c1OCCO2 ... 65%
O=C(NCC1CCN(CCCS(=O)(=O)N2CCOCC2)CC1)c1cccc2c1OCCO2 ... 76%
CC1(C)CCN(S(=O)(=O)CCCN2CCC(CNC(=O)c3cccc4c3OCCO4)CC2)CC1 ... 100%
CCCS(=O)(=O)N1CCN(S(=O)(=O)CCCN2CCC(CNC(=O)c3cccc4c3OCCO4)CC2)CC1 ... 82%

Kindly consider the entry below.
// lookup bioavailability for CCN1CCN(S(=O)(=O)CCCN2CCC(CNC(=O)c3cccc4c3OCCO4)CC2)CC1 94%
